Source: the METLIN SMRT retention time set (Domingo-Almenara et al. 2019)

Test: gradient 5% acetonitrile 3 min, to 50% in 2 min, to 85% in 15 min, held 3 min, 100 µL/min
Settings: column: Zorbax Extend-C18 2.1 x 50 mm; eluents: water / acetonitrile, 0.1% formic acid
EXPERIMENTAL_ENDPOINT: RP-LC retention time (s)
Write down the numeric answer in s and omit the unit.

According to the records, this compound O=C(c1ccncc1)N1CCC2(CC1)N=C(c1ccccc1)NO2 displays RP-LC retention time of 611

Value of RP-LC retention time reported for the compound c1ccc2c(CCNc3ncnc4nc[nH]c34)c[nH]c2c1 is 577

So for Cc1cccc([N+](=O)[O-])c1NC(=O)C1CCCN(c2ccc(-n3cccn3)nn2)C1 (stereo not given) , the logged RP-LC retention time turned out to be 711

// field: RP-LC retention time; key: O=C(c1ccc2c(=O)n(Cc3ccccc3)c(N3CCCC3)nc2c1)N1CCN(c2ccccn2)CC1 ; value = 655

// sample O=C1C2N=NN(c3cccc(F)c3)C2C(=O)N1c1ccccc1 (stereo not given) , its RP-LC retention time was 925

Value of RP-LC retention time reported for the compound O=C(Nc1ccc(-c2nnc3n2CCCC3)cc1)c1ccc2ccccc2n1 is 773

The value of RP-LC retention time measured for the compound Cc1csc(NC(=O)Cn2nc3c(cc2=O)CCCC3)n1 turned out to be 683

Looking up CCCn1c(=O)c2c(nc3n2CCN3c2ccc(OC)cc2)n(C)c1=O , I found its RP-LC retention time recorded as 834

The recorded RP-LC retention time for entry O=C(c1ccccn1)N1CCCC(OCc2nc(C3CC3)no2)C1 (stereo not given) equals 619

// field: RP-LC retention time; key: COc1cccc(CCC(=O)N2CC3CN(S(=O)(=O)c4ccc(C)cc4)CC(C2)O3)c1 ; value = 908
